# System: Human alphaherpesvirus 1
# assay: Antiviral activity against Herpes simplex virus 1 KOS infected in human skin fibroblasts primed with interferon and superinduced with cyclohexamide and actinomycin D assessed as inhibition of virus-induced cytopathogenicity
# Format: functional
# measurement setup: Human alphaherpesvirus 1, KOS
attribute measured: MIC (µM)
Expressed in µM, but write only the number.

Exercise: Report MIC for NC(=O)COc1cn([C@H]2C[C@H](O)[C@@H](CO)O2)c(=O)[nH]c1=O
Solution: 260

Exercise: Return reported MIC. Input molecule: O=c1[nH]c(=O)n([C@H]2C[C@H](O)[C@@H](CO)O2)cc1I
Solution: 0.35

###

# Test system: Human alphaherpesvirus 1
# assay: Antiviral activity against Herpes simplex virus 1 KOS infected in human skin fibroblasts primed with interferon and superinduced with cyclohexamide and actinomycin D assessed as inhibition of virus-induced cytopathogenicity
# Type: functional
# measurement setup: Human alphaherpesvirus 1, KOS
For each record, write down the corresponding MIC.
The answer is to be given in µM; state only the numeric part.

Exercise: Using Human alphaherpesvirus 1 as the test system, report measured MIC of C#CCOc1cn([C@H]2C[C@H](O)[C@@H](CO)O2)c(=O)[nH]c1=O .
Solution: 3.5

Exercise: Look up and report measured MIC (Human alphaherpesvirus 1) for the following compound: Nc1ncnc2c1ncn2[C@@H]1O[C@H](CO)[C@@H](O)[C@@H]1O [VIDARABINE]
Solution: 3.5

Exercise: Fill: MIC (Human alphaherpesvirus 1) for this compound C=CCOc1cn([C@H]2C[C@H](O)[C@@H](CO)O2)c(=O)[nH]c1=O
Solution: 140

Exercise: Write down measured MIC (Human alphaherpesvirus 1) for this compound. O=c1[nH]c(=O)n([C@H]2C[C@H](O)[C@@H](CO)O2)cc1O
Solution: 3.5

###

# System: Human alphaherpesvirus 1
# assay: Antiviral activity against Herpes simplex virus 1 KOS infected in primary rabbit kidney cells assessed as inhibition of virus-induced cytopathogenicity
# Assay type: functional
# measurement setup: Human alphaherpesvirus 1, KOS
attribute measured: MIC (µM)
Respond numerically; units are µM and should not be typed.

Exercise: Quote Human alphaherpesvirus 1 MIC for entry C#CCOc1cn([C@H]2C[C@H](O)[C@@H](CO)O2)c(=O)[nH]c1=O .
Solution: 2.6

Exercise: Output reported MIC of the compound O=c1[nH]c(=O)n([C@H]2C[C@H](O)[C@@H](CO)O2)cc1O on Human alphaherpesvirus 1.
Solution: 16

Exercise: Provide MIC, recorded with Human alphaherpesvirus 1, of NC(=O)COc1cn([C@H]2C[C@H](O)[C@@H](CO)O2)c(=O)[nH]c1=O
Solution: 140

Exercise: Answer with MIC of Nc1ncnc2c1ncn2[C@@H]1O[C@H](CO)[C@@H](O)[C@@H]1O measured for Human alphaherpesvirus 1.
Solution: 14

###

# Test system: Human alphaherpesvirus 1
# assay: Antiviral activity against Herpes simplex virus 1 KOS infected in human skin fibroblasts primed with interferon and superinduced with cyclohexamide and actinomycin D assessed as inhibition of virus-induced cytopathogenicity
# Format: functional
# measurement setup: Human alphaherpesvirus 1, KOS
attribute measured: MIC

Exercise: Supply MIC value. Item: O=c1[nH]c(=O)n([C@H]2C[C@H](O)[C@@H](CO)O2)cc1OCc1ccc([N+](=O)[O-])cc1
Solution: > 520 µM

Exercise: Assign MIC to the following record: Cc1ccc(COc2cn([C@@H]3O[C@H](CO)[C@@H](O)[C@H]3O)c(=O)[nH]c2=O)cc1
Solution: > 600 µM

Exercise: Tell us which MIC value is on record for NC(=O)COc1cn([C@@H]2O[C@H](CO)[C@@H](O)[C@H]2O)c(=O)[nH]c1=O
Solution: > 600 µM

Exercise: Consider the compound O=c1[nH]c(=O)n([C@@H]2O[C@H](CO)[C@@H](O)[C@H]2O)cc1OCc1ccccc1 and give its recorded MIC.
Solution: > 600 µM

Exercise: State, in one line, measured MIC of O=c1[nH]c(=O)n([C@H]2C[C@H](O)[C@@H](CO)O2)cc1OCc1ccccc1
Solution: > 450 µM
